organism: Bos taurus; experiment: Inhibition of bovine heart mitochondrial NADH oxidase complex I/III/IV assessed as remaining activity at 5 uM by spectrophotometry relative to untreated control
Listed here: items and their measured Activity.
Please reply with the bare figure in % and do not write the unit itself.

INPUT_SMILES	PROPERTY_LABEL	QUANTITATIVE_READOUT
Cc1c(N(C)C)nc(CCCCCCCCCCO)c(O)c1C	Activity	9
CCCCCCCCCCCCCCCCCCCc1nc(N(C)C)c(C)c(C)c1O	Activity	88
CCCCCCCCCCCCCCCCCCCc1c(C)c(N(C)C)nc(C)c1O	Activity	83
CCCCCCCCCCc1nc(N(C)C)c(C)c(C)c1O	Activity	28
CCCCCCCCCCc1c(C)c(N(C)C)nc(C)c1O	Activity	35

If you can, please state the reported Activity value of "CCCCCCCCCCCCCCCCc1nc(N2CCC2)c(C)c(C)c1O" .
94

And for "CCCCCCCCCCCCCCCCc1c(C)c(N(C)C)nc(C)c1O" ?
93

And for "CCCCCCCCCCCCCCCCc1nc(N(C)C)c(C)c(C)c1O" ?
95

And for "CCCCCCCCCCCCCCCCc1c(C)c(N2CCC2)nc(C)c1O" ?
89

----------
tested on: Lymphocyte; test: Cytoprotective activity in human lymphocytes obtained from FRDA patient assessed as viable cells at 0.1 uM after 16 hrs by trypan blue exclusion assay; format: functional; conditions: read-out: Activity
Please note: viability at 0.1 µM exactly at 50% is FALSE. Only values below 50% get TRUE.

Below, 2 compounds whose answers are already recorded.
INPUT_SMILES	CLASS
CCCCCCCCCCc1nc(N(C)C)c(C)c(C)c1O	TRUE
Cc1c(N(C)C)nc(CCCCCCCCCCO)c(O)c1C	TRUE

For the next question, use this compound.
Hello, I'm reviewing records and need to know if viability at 0.1 µM of "CCCCCCCCCCCCCCCCc1nc(N(C)C)c(C)c(C)c1O" is below 50%. Could you check?
FALSE

----------
system: Lymphocyte; test: Increase in ATP production in CoQ10-deficient lymphocytes (unknown origin) assessed as cellular ATP level at 5 uM after 48 hrs using luciferin-luciferase reaction by bioluminescence assay relative to control; assay type: functional
Listed here: items and their measured Activity.
Please reply with the bare figure in % and do not write the unit itself.

INPUT_SMILES	SYSTEM	Activity, %
Cc1c(N(C)C)nc(CCCCCCCCCCO)c(O)c1C	Lymphocyte	50
CCCCCCCCCCCCCCCCc1nc(N2CCC2)c(C)c(C)c1O	Lymphocyte	92
CCCCCCCCCCCCCCCCCCCc1c(C)c(N(C)C)nc(C)c1O	Lymphocyte	106
CCCCCCCCCCc1c(C)c(N(C)C)nc(C)c1O	Lymphocyte	87

What reported Activity corresponds to "CCCCCCCCCCCCCCCCCCCc1nc(N(C)C)c(C)c(C)c1O" on Lymphocyte?
102

And for "CCCCCCCCCCCCCCCCc1c(C)c(N2CCC2)nc(C)c1O" ?
98

And for "CCCCCCCCCCc1nc(N(C)C)c(C)c(C)c1O" ?
89

And for "CCCCCCCCCCCCCCCCc1nc(N(C)C)c(C)c(C)c1O" ?
100

And for "CCCCCCCCCCCCCCCCc1c(C)c(N(C)C)nc(C)c1O" ?
96

----------
tested on: Lymphocyte; assay: Cytoprotective activity in human lymphocytes obtained from FRDA patient assessed as viable cells at 0.1 uM after 16 hrs by trypan blue exclusion assay; type: functional; conditions: read-out: Activity
PROPERTY_LABEL: viability at 0.1 µM (%)
Please reply with the bare figure in % and do not write the unit itself.

// below: answered compounds
INPUT_SMILES	SYSTEM	UNIT_ABBREVIATION	viability at 0.1 µM
CCCCCCCCCCCCCCCCc1c(C)c(N2CCC2)nc(C)c1O	Lymphocyte	%	58
CCCCCCCCCCCCCCCCCCCc1c(C)c(N(C)C)nc(C)c1O	Lymphocyte	%	20

If you can, please state the reported viability at 0.1 µM value of "CCCCCCCCCCc1c(C)c(N(C)C)nc(C)c1O" .
34

----------
system: Lymphocyte; assay: Inhibition of oxidative stress-induced mitochondrial membrane depolarization in diethyl maleate-treated human lymphocytes obtained from FRDA patient assessed as cells with intact mitochondrial membrane potential at 500 nM pretreated for 16 hrs using TMRM by FACS analysis (reference value: 95%); assay type: functional; design: scale not given: the % may be the effect or the level left
PROPERTY_LABEL: Activity
Returns: string containing the numeric result and its unit.

INPUT_SMILES	SYSTEM	RESULT
CCCCCCCCCCCCCCCCCCCc1nc(N(C)C)c(C)c(C)c1O	Lymphocyte	65%

If you can, please state the reported Activity value of "Cc1c(N(C)C)nc(CCCCCCCCCCO)c(O)c1C" .
50%

And for "CCCCCCCCCCc1nc(N(C)C)c(C)c(C)c1O" ?
90%

And for "CCCCCCCCCCCCCCCCc1nc(N(C)C)c(C)c(C)c1O" ?
92%

And for "CCCCCCCCCCc1c(C)c(N(C)C)nc(C)c1O" ?
89%

And for "CCCCCCCCCCCCCCCCc1c(C)c(N2CCC2)nc(C)c1O" ?
89%

----------
test system: Lymphocyte; assay: Inhibition of lipid peroxidation in diethyl maleate-treated human lymphocytes obtained from FRDA patient at 100 to 250 nM after 16 hrs using C11-BODIPY581/591 by FACS analysis; type: functional, cell-based
Calls of active or inactive are those of the source. The rule behind the calls is not given here.
Result category, one only: class 1 (active), class 0 (inactive)

INPUT_SMILES	CLASS
CCCCCCCCCCc1c(C)c(N(C)C)nc(C)c1O	class 1

// return assay outcome for "Cc1c(N(C)C)nc(CCCCCCCCCCO)c(O)c1C"
class 0

And for "CCCCCCCCCCCCCCCCc1nc(N(C)C)c(C)c(C)c1O" ?
class 1

And for "CCCCCCCCCCCCCCCCc1c(C)c(N(C)C)nc(C)c1O" ?
class 1

And for "CCCCCCCCCCc1nc(N(C)C)c(C)c(C)c1O" ?
class 1

And for "CCCCCCCCCCCCCCCCc1c(C)c(N2CCC2)nc(C)c1O" ?
class 1

And for "CCCCCCCCCCCCCCCCc1nc(N2CCC2)c(C)c(C)c1O" ?
class 1

And for "CCCCCCCCCCCCCCCCCCCc1nc(N(C)C)c(C)c(C)c1O" ?
class 0

And for "CCCCCCCCCCCCCCCCCCCc1c(C)c(N(C)C)nc(C)c1O" ?
class 0

----------
Listed here: items and their measured remaining at 0.5 h, 25 µM.
assay: Metabolic stability in bovine liver microsomes at 25 uM after 30 mins by reverse phase HPLC analysis; assay type: ADME, Bos taurus; settings: cattle, read-out: Stability
Please reply with the bare figure in % and do not write the unit itself.

// below: answered compounds
INPUT_SMILES	UNIT_ABBREVIATION	remaining at 0.5 h, 25 µM
CCCCCCCCCCCCCCCCc1c(C)c(N2CCC2)nc(C)c1O	%	95
CCCCCCCCCCCCCCCCc1nc(N(C)C)c(C)c(C)c1O	%	70
CCCCCCCCCCCCCCCCc1nc(N2CCC2)c(C)c(C)c1O	%	95
CCCCCCCCCCCCCCCCCCCc1nc(N(C)C)c(C)c(C)c1O	%	50
CCCCCCCCCCCCCCCCCCCc1c(C)c(N(C)C)nc(C)c1O	%	50
CCCCCCCCCCc1c(C)c(N(C)C)nc(C)c1O	%	70

If you can, please state the reported remaining at 0.5 h, 25 µM value of "CCCCCCCCCCc1nc(N(C)C)c(C)c(C)c1O" .
70

And for "CCCCCCCCCCCCCCCCc1c(C)c(N(C)C)nc(C)c1O" ?
70

----------
tested on: Lymphocyte; test: Cytoprotective activity in human lymphocytes obtained from FRDA patient assessed as viable cells after 16 hrs by trypan blue exclusion assay; format: functional, cell-based
PROPERTY_LABEL: Activity

INPUT_SMILES	RESULT
CCCCCCCCCCCCCCCCc1c(C)c(N(C)C)nc(C)c1O	Dose-dependent effect
CCCCCCCCCCCCCCCCc1nc(N(C)C)c(C)c(C)c1O	Dose-dependent effect
CCCCCCCCCCc1c(C)c(N(C)C)nc(C)c1O	Dose-dependent effect

----------
system: Lymphocyte; test: Cytoprotective activity in human lymphocytes obtained from FRDA patient assessed as viable cells at 0.1 uM after 16 hrs by trypan blue exclusion assay; format: functional; details: read-out: Activity
PROPERTY_LABEL: viability at 0.1 µM (%)
Please reply with the bare figure in % and do not write the unit itself.

INPUT_SMILES	viability at 0.1 µM / %
CCCCCCCCCCCCCCCCCCCc1nc(N(C)C)c(C)c(C)c1O	17
CCCCCCCCCCCCCCCCc1c(C)c(N(C)C)nc(C)c1O	52

Moving on to the next compound.
If you can, please state the reported viability at 0.1 µM value of "CCCCCCCCCCCCCCCCc1nc(N2CCC2)c(C)c(C)c1O" .
54
